- Test system: methicilline resistant Staphylococcus aureus (MRSA) (a clinical isolate from the University of Antwerp)
- Experiment Description: Microtitre plate assay, IC90 determination
- Format: cell-based
- Setup Conditions: 90% inhibitory concentration for bacterial growth, 37° C., resazurin fluorescence, read-out: IC90 (μg/ml) STA RMETHIC
- Experimental: The bacteria used in this study were grown overnight in flasks containing 100 ml Mueller-Hinton Broth (Becton Dickinson—cat. no. 275730) in sterile de-ionized water, with shaking, at 37° C. Stocks (0.5 ml/tube) were stored at −70° C. until use. Bacteria titrations were performed in microtiter plates and colony forming units (CFUs) were determined. In general, an inoculum level of approximately 100 CFUs was used for susceptibility testing. Anti Bacterial Susceptibility Testing: IC90 Determination […]
Field: IC90. Provide a value for each of the compounds that follow.
Just the number please, in µg/mL, no unit attached.

### Prompt Could you share which IC90 value was measured for COc1nc2c(C(O)(CCN(C)C)c3ccccc3)cc(Br)cc2cc1Cc1ccccc1 (stereo not drawn) [Compound 8] ?
### Response 11.3

### Prompt Could you share which IC90 value was measured for CN(C)CCC(O)(c1cccc2ccccc12)c1cc(Br)cc2cc(Cc3ccccc3)c(N3CCN(c4n[nH]c5ccccc45)CC3)nc12 (stereo not drawn) [Compound 26] ?
### Response 18.2

### Prompt Could you share which IC90 value was measured for CN(C)CCC(O)(c1cc(F)cc(F)c1)c1cc(Br)cc2cc(Cc3ccccc3)c(-n3ccnc3)nc12 (stereo not drawn) [Compound 19] ?
### Response 14.5

### Prompt Could you share which IC90 value was measured for CN(C)CCC(O)(c1ccccc1)c1ccc2nc(N(C)C)cc(-c3ccccc3)c2c1 (stereo not drawn) [Compound 47] ?
### Response 10.7

### Prompt Could you share which IC90 value was measured for COc1nc2c(C(O)(CCN(C)C)c3cccs3)cc(-c3cccnc3)cc2cc1Cc1ccccc1 (stereo not drawn) [Compound 67] ?
### Response 51

### Prompt Could you share which IC90 value was measured for CN(C)CCC(O)(c1cccc2ccccc12)c1cc(Br)cc2cc(-c3ccccc3)c(-n3cncn3)nc12 (stereo not drawn) [Compound 33] ?
### Response 14.5

### Prompt Could you share which IC90 value was measured for CN(C)CCC(O)(c1cccc2ccccc12)c1cc(Br)cc2cc(Cc3ccccc3)c(-n3ccnc3)nc12 (stereo not drawn) [Compound 24] ?
### Response 14.9

### Prompt Could you share which IC90 value was measured for COc1nc2cccc(C(O)(CCN(C)C)c3cc(F)cc(F)c3)c2cc1-c1ccccc1 (stereo not drawn) [Compound 1] ?
### Response 11.3

### Prompt Could you share which IC90 value was measured for CN(C)CCC(O)(Cc1c(-c2ccccc2)c(-c2ccccc2)nc2ccccc12)c1cc(F)cc(F)c1 (stereo not drawn) [Compound 21] ?
### Response 12.8

====

Where a name gives a salt, the structure may show the parent alone.
Field: melting point. Provide a value for each of the compounds that follow.
Remember to put the unit after the number in your answer.

### Prompt Could you share which melting point value was measured for CN(C)CCC(O)(Cc1c(-c2ccccc2)c(-c2ccccc2)nc2ccccc12)c1cc(F)cc(F)c1 (stereo not drawn) [Compound 21] ?
### Response 173 °C

### Prompt Could you share which melting point value was measured for CN(C)CCC(O)(c1cc(F)cc(F)c1)c1ccc2nc(-c3cccnc3)cc(-c3ccccc3)c2c1 (stereo not drawn) (as salt: salt) [Compound 42] ?
### Response 151 °C

### Prompt Could you share which melting point value was measured for COc1nc2c(C(O)(CCN(C)C)c3ccccc3)cc(-c3cccnc3)cc2cc1Cc1ccccc1 (stereo not drawn) [Compound 66] ?
### Response 180 °C
